Values were extracted from patent US20260001914A1.

Molecular target: KRAS-G12D protein (Homo sapiens, UniProt P01116, G12D)
Sequence (P01116 1-188 isoform P01116-2 G12D): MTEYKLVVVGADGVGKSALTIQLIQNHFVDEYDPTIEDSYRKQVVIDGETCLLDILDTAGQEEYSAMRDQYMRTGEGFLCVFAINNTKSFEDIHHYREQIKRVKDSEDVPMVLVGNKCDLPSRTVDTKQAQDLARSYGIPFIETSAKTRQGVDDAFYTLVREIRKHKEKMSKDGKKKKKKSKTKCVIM
Test: SOS-mediated nucleotide exchange assay (BODIPY-GDP / Tb-streptavidin TR-FRET)
Assay type: biochemical
pEC50: −log10 of the molar value. *1 amine or outer side, *2 acyl side, *3 side chain or, on linkers, in order; H or OH if unused. Where a SMILES comes first, the peptide text is derived from it. Bridges are numbered along the chain shown (N, C = ends). [ ]: non-standard residue; d: D form. X48 = CCCC[C@@H](/C=C\[C@@H](Cc1cccnc1)C(=O)[*:2])N[*:1]; Phe(4-guanidino) = N=C(N)Nc1ccc(C[C@H](N)C(=O)O)cc1; X78 = Nc1ccnc2ccc(C[C@H](N[*:1])C(=O)[*:2])cc12; Ala(pyrimidin-5-yl) = N[C@@H](Cc1cncnc1)C(=O)O; Phe(2-F) = N[C@@H](Cc1ccccc1F)C(=O)O; NMeY = CN[C@@H](Cc1ccc(O)cc1)C(=O)O; X1 = O=C(C12CC(CN[*:1])(C1)C2)[*:2]; NMeF = CN[C@@H](Cc1ccccc1)C(=O)O; PhLac = O=C(O)[C@@H](O)Cc1ccccc1; NMeA = CN[C@@H](C)C(=O)O; Nle = CCCC[C@H](N)C(=O)O
The threshold is inclusive: pEC50 of exactly 7 counts as True; values below receive False.

[
  {
    "COMPOUND": "CCCC[C@@H]1NC(=O)[C@H](Cc2cncnc2)NC(=O)[C@H](C)N(C)C(=O)[C@H](Cc2ccccc2)OC(=O)C23CC(CNC(=O)[C@H](Cc4ccccc4)N(C)C(=O)[C@H](CCCC)NC(=O)[C@H](Cc4ccccc4F)NC1=O)(C2)C3 [compound 230] (cyclo([NMeA][Ala(pyrimidin-5-yl)][Nle][Phe(2-F)][Nle][NMeF][X1][PhLac]))",
    "CLASS": "True"
  },
  {
    "COMPOUND": "CCCC[C@H]1/C=C\\[C@@H](Cc2cccnc2)C(=O)NCC23CC(C2)(C3)C(=O)O[C@@H](Cc2ccccc2)C(=O)N(C)[C@@H](C)C(=O)N[C@@H](Cc2cncnc2)C(=O)N[C@@H](CCCC)C(=O)N[C@@H](Cc2ccccc2F)C(=O)N1 [SEQ ID NO: 137] (cyclo([NMeA][Ala(pyrimidin-5-yl)][Nle][Phe(2-F)][X48][X1][PhLac]))",
    "CLASS": "False"
  },
  {
    "COMPOUND": "CCCC[C@@H]1NC(=O)[C@H](CCCCN)NC(=O)[C@H](CCCNC(=N)N)NC(=O)[C@H](C(c2ccccc2)c2ccccc2)NC(=O)CSC[C@H](C(N)=O)NC(=O)[C@H](Cc2ccccc2)N(C)C(=O)[C@H](CCCC)NC(=O)[C@H](Cc2ccc(O)cc2)NC1=O [compound 149, cyclo(Dip-R-K-Nle-Y-Nle-NMeF-dCl-ClAc)]",
    "CLASS": "False"
  },
  {
    "COMPOUND": "CCCC[C@@H]1NC(=O)[C@H](Cc2cncnc2)NC(=O)[C@H](C)N(C)C(=O)[C@H](Cc2ccccc2)OC(=O)C23CC(CNC(=O)[C@H](Cc4ccc(OC)cc4)N(C)C(=O)[C@H](CCCC)NC(=O)[C@H](Cc4ccccc4F)NC1=O)(C2)C3 [compound 175] (cyclo([NMeA][Ala(pyrimidin-5-yl)][Nle][Phe(2-F)][Nle][NMeY](Me)[X1][PhLac]))",
    "CLASS": "True"
  },
  {
    "COMPOUND": "CCCC[C@@H]1NC(=O)[C@H](Cc2ccc(OC)cc2)NC(=O)[C@H](CC(C)C)NC(=O)[C@H](Cc2ccc(NC(=N)N)cc2)NC(=O)[C@H](Cc2ccc3nccc(N)c3c2)NC(=O)[C@H](Cc2ccccc2)NC(=O)CSC[C@@H](C(N)=O)NC(=O)[C@H](Cc2ccccc2)N(C)C1=O [compound 29] ({CH2CO}-F[X78][Phe(4-guanidino)]LY(Me)[Nle][NMeF]C-NH2; thioether N-8)",
    "CLASS": "False"
  },
  {
    "COMPOUND": "CCCC[C@@H]1NC(=O)[C@H](Cc2ccccc2F)NC(=O)C(CC2CC(F)(F)C2)NC(=O)[C@H](Cc2cncnc2)NC(=O)[C@H](C)N(C)C(=O)[C@H](Cc2ccccc2)OC(=O)C23CC(CNC(=O)[C@H](Cc4cccnc4)N(C)C1=O)(C2)C3 (single isomer, unassigned) [compound 122]",
    "CLASS": "False"
  }
]

* * *

Target: KRAS-G12D protein (Homo sapiens, UniProt P01116, G12D)
Assay: SOS-mediated nucleotide exchange assay (BODIPY-GDP / Tb-streptavidin TR-FRET)
Assay type: biochemical
*1 amine or outer side, *2 acyl side, *3 side chain or, on linkers, in order; H or OH if unused. Where a SMILES comes first, the peptide text is derived from it. Bridges are numbered along the chain shown (N, C = ends). [ ]: non-standard residue; d: D form. Phe(4-guanidino) = N=C(N)Nc1ccc(C[C@H](N)C(=O)O)cc1; Ala(pyrimidin-5-yl) = N[C@@H](Cc1cncnc1)C(=O)O; Leu(4,5-dehydro) = C=C(C)C[C@H](N)C(=O)O; X1 = O=C(C12CC(CN[*:1])(C1)C2)[*:2]; Ala(cPr) = N[C@@H](CC1CC1)C(=O)O; NMeF = CN[C@@H](Cc1ccccc1)C(=O)O; PhLac = O=C(O)[C@@H](O)Cc1ccccc1; Ahp(2) = CCCCC[C@H](N)C(=O)O; Cba = N[C@@H](CC1CCC1)C(=O)O; hLeu = CC(C)CC[C@H](N)C(=O)O; αMeC = C[C@](N)(CS)C(=O)O; NMeA = CN[C@@H](C)C(=O)O
The compounds listed here are annotated with their EC50.

[
  {
    "COMPOUND": "C=C(C)C[C@@H]1NC(=O)[C@H](CC2CC2)NC(=O)[C@H](Cc2cncnc2)NC(=O)[C@H](C)N(C)C(=O)[C@H](Cc2ccccc2)OC(=O)C23CC(CNC(=O)[C@H](Cc4ccccc4)N(C)C(=O)[C@H](CCC(C)C)NC1=O)(C2)C3 [compound 287] (cyclo([Ala(cPr)][Leu(4,5-dehydro)][hLeu][NMeF][X1][PhLac][NMeA][Ala(pyrimidin-5-yl)]))",
    "UNIT_TAG": "nM",
    "EC50": 720
  },
  {
    "COMPOUND": "CCCCC[C@@H]1NC(=O)[C@H](Cc2ccc(OC)cc2)NC(=O)[C@H](CC2CCC2)NC(=O)[C@H](Cc2ccc(NC(=N)N)cc2)NC(=O)[C@H](CCCNC(=N)N)NC(=O)[C@H](Cc2ccccc2)NC(=O)CSC[C@@](C)(C(N)=O)NC(=O)[C@H](Cc2ccccc2)N(C)C1=O [compound 346] ({CH2CO}-FR[Phe(4-guanidino)][Cba]Y(Me)[Ahp(2)][NMeF][αMeC]-NH2; thioether N-8)",
    "UNIT_TAG": "nM",
    "EC50": 1.24
  }
]
